Assay: Mouse PK, multiple oral dosing of single compounds
Type: in vivo, KM mice
Conditions: KM, mouse, plasma, po, 30 mg/kg, multiple PO 30 mg/kg, times 3, mean of animals; read-out: Cmax
Source text: Methods for combined single dosing (BGAz001–005) and dosing of single compounds multiple times (BGAz004 and BGAz005) are described in detail in the Supporting Information (PK Data). Report on PK results of BGAz-004 by multiple oral dosing 7 Materials and instrument combined dosing […]
readoutKind: Cmax (ng/mL)
Hi! Could you send only the number? It should be in ng/mL, unit omitted.

Lab book: Cmax of CNCC1CC(c2ccc(OC(F)(F)F)cc2)N1Cc1ccccc1OC(F)(F)F (stereo not shown) noted as 1710
